# assayed system: Serine-protein kinase ATM (Homo sapiens, UniProt Q13315)
# Sequence (Q13315 whole entry): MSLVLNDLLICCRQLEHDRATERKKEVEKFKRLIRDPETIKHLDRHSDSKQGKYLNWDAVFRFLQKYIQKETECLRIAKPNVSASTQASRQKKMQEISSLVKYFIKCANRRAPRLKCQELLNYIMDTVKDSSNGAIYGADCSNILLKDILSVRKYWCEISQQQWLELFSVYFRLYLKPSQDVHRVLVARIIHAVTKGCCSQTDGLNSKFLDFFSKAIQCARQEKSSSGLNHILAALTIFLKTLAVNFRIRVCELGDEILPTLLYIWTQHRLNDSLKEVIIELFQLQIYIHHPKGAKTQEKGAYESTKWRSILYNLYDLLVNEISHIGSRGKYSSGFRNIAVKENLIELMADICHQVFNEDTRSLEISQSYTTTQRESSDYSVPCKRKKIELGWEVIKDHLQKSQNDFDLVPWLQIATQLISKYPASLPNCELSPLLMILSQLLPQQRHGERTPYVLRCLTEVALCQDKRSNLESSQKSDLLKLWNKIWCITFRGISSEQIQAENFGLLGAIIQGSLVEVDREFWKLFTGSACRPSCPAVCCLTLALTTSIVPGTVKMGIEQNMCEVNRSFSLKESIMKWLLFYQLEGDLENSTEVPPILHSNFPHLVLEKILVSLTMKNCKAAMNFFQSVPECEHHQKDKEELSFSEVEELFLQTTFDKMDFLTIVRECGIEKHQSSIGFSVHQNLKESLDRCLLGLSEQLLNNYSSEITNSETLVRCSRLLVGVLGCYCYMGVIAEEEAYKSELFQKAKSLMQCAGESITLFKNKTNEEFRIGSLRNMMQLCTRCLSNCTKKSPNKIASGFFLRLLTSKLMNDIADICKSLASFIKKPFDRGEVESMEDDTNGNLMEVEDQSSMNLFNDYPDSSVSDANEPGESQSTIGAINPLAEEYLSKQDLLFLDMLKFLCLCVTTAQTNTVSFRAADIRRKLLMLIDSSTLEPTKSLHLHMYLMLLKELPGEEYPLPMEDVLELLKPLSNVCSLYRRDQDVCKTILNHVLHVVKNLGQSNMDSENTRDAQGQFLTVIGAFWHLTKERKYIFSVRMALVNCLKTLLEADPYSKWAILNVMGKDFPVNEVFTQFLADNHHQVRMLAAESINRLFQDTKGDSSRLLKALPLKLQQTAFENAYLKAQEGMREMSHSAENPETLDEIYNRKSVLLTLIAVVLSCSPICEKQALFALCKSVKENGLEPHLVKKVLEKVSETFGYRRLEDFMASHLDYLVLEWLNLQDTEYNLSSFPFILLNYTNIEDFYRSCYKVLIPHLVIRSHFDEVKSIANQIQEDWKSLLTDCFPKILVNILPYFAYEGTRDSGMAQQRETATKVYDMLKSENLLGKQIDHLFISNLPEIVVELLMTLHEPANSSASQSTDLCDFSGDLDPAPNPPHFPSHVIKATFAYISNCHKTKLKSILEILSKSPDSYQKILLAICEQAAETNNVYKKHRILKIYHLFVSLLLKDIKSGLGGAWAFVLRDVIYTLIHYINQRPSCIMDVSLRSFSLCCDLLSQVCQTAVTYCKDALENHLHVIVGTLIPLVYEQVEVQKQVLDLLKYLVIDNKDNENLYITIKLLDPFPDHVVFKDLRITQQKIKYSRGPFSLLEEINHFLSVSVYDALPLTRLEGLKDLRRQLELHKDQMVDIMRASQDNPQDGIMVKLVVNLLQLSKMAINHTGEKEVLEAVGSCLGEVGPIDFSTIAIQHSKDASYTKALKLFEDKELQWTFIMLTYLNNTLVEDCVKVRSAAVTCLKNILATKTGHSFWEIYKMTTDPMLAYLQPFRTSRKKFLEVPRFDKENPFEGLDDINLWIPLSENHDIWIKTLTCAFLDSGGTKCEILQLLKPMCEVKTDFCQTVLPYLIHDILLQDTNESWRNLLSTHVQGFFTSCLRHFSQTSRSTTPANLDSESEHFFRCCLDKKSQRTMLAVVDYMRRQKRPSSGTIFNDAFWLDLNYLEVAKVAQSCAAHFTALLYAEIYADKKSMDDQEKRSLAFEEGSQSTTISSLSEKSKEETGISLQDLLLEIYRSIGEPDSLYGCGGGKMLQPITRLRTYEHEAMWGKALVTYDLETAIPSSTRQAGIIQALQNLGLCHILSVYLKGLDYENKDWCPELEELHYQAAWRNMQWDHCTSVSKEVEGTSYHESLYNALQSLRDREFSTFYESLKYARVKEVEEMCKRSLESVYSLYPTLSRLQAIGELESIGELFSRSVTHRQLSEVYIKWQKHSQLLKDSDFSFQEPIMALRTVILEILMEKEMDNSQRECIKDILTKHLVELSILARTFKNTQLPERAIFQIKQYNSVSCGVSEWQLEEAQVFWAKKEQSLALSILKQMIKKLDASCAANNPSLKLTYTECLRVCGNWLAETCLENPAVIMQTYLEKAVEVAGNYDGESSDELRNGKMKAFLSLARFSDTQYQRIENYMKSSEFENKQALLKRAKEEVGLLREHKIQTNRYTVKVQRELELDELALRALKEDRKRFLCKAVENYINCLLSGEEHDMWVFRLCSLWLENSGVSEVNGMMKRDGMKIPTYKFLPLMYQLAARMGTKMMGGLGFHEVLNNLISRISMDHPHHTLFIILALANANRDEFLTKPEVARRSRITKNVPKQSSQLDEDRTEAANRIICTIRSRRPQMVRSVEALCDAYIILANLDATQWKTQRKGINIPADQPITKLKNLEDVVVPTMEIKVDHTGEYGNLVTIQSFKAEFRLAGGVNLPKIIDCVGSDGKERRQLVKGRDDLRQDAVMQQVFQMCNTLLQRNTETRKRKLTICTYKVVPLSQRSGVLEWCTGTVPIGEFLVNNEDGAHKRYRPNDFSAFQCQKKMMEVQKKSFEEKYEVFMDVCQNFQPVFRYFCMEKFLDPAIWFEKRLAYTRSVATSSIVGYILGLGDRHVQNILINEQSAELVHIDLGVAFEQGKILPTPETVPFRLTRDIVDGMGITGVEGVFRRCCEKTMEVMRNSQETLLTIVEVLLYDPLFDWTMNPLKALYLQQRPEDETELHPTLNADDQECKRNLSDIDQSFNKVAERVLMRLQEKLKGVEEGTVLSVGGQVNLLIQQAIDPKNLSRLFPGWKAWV
# protocol details: Inhibition of ATM derived from human HeLa cell nuclear extract using glutathione S-transferase p53N66 as substrate preincubated for 10 mins followed by ATP addition and subsequent incubation for 1 hr measured after 1.5 hrs by ELISA
test readout: IC50

Endpoint output: IC50 of CN1CCN(CCC(=O)Nc2ccc3c(c2)Sc2cccc(-c4cc(=O)cc(N5CCOCC5)o4)c2S3)CC1 . Value?
3 nM

----------
# IC50 per entry for Serine-protein kinase ATM (Homo sapiens)
# number then unit; no other words

Worked cases, IC50 given:
- CO[C@H]1C[C@@H](n2c(=O)n(C)c3cnc4cc(F)c(-c5ccc(NCCN(C)C)nc5)cc4c32)C1: 6 nM
- CO[C@H]1C[C@@H](n2c(=O)n(C)c3cnc4cc(F)c(-c5ccc(NC(=O)CCCN(C)C)nc5)cc4c32)C1: 8.2 nM
- COCc1ccc(-c2cc3c(cc2F)ncc2c3n([C@H]3CC[C@H](OC)CC3)c(=O)n2C)cn1: 240 nM

Here is the next item to consider.
Endpoint output: IC50 of COCc1ccc(-c2cc3c(cc2F)ncc2c3n(C3CCOCC3)c(=O)n2C)cn1 . Value?
450 nM
